This listing pairs compounds with measured IC50.
# test system: Tyrosine-protein phosphatase non-receptor type 1 (Homo sapiens)
# Sequence (P18031 whole entry): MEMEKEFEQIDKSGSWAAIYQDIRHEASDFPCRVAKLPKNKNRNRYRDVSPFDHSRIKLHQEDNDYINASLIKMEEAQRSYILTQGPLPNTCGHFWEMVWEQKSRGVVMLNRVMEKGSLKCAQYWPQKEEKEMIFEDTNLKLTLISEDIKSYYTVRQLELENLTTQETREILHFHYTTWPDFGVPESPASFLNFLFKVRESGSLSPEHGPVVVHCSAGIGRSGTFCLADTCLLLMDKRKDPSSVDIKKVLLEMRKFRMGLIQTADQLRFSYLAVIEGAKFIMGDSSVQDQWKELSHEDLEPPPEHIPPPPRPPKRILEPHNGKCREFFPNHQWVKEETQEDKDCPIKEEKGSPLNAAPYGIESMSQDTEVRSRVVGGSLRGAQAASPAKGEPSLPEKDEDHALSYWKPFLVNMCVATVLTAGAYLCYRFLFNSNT
# method description: Inhibition of human recombinant PTP1B using p-NPP as substrate preincubated for 10 mins followed by substrate addition measured after 20 mins by microplate reader analysis
Enter your answer as a number in µM; do not include the unit.

Past entries and their recorded results:
[
  {
    "compound": "O=c1cc(-c2ccc(O)cc2)oc2c(-c3c(O)cc(O)c4c(=O)cc(-c5ccc(O)cc5)oc34)c(O)cc(O)c12 [CUPRESSUFLAVONE]",
    "IC50 (µM)": 9.6
  },
  {
    "compound": "O=c1cc(-c2ccc(O)c(-c3c(O)cc(O)c4c(=O)cc(-c5ccc(O)cc5)oc34)c2)oc2cc(O)cc(O)c12 [AMENTOFLAVONE]",
    "IC50 (µM)": 7.4
  },
  {
    "compound": "O=c1cc(-c2ccc(O)c(-c3c(O)cc4oc(-c5ccc(O)cc5)cc(=O)c4c3O)c2)oc2cc(O)cc(O)c12 [ROBUSTAFLAVONE]",
    "IC50 (µM)": 6.2
  },
  {
    "compound": "O=C1C[C@@H](c2cc(-c3c(O)ccc4c(=O)cc(-c5ccc(O)cc5)oc34)c(O)cc2O)Oc2cc(O)cc(O)c21",
    "IC50 (µM)": 9.8
  },
  {
    "compound": "O=c1cc(-c2ccc(O)c(-c3c(-c4ccc(O)cc4)oc4cc(O)cc(O)c4c3=O)c2)oc2cc(O)cc(O)c12 [TAIWANIAFLAVONE]",
    "IC50 (µM)": 5.4
  }
]

Input line: Give its IC50 value. Item: O=c1c(-c2c(O)cc(O)c3c(=O)cc(-c4ccc(O)cc4)oc23)c(-c2ccc(O)cc2)oc2cc(O)cc(O)c12
Output line: 4.5

Input line: Request the reported IC50 associated with O=C(O)c1c(-c2ccc(O)cc2)ccc(CO)c1C#Cc1ccc(O)cc1
Output line: 13.2

* * *

# test system: Tyrosine-protein phosphatase non-receptor type 1 (Homo sapiens, UniProt P18031)
# method description: Uncompetitive inhibition of human recombinant PTP1B using p-NPP as substrate preincubated for 10 mins followed by substrate addition measured after 20 mins by Lineweaver-Burk/Dixon plot analysis
metric name: pKi
Lab note — pKi values are minus log10 of concentrations in M.

Input line: Fill in the recorded pKi for this compound, with Tyrosine-protein phosphatase non-receptor type 1 (Homo sapiens, UniProt P18031) as test system: O=C1C[C@@H](c2cc(-c3c(O)ccc4c(=O)cc(-c5ccc(O)cc5)oc34)c(O)cc2O)Oc2cc(O)cc(O)c21
Output line: 4.98
